For each entry below, report its IC50 value.
target_or_system: IL-23R (Homo sapiens)
Sequence (Q5VWK5 24-629): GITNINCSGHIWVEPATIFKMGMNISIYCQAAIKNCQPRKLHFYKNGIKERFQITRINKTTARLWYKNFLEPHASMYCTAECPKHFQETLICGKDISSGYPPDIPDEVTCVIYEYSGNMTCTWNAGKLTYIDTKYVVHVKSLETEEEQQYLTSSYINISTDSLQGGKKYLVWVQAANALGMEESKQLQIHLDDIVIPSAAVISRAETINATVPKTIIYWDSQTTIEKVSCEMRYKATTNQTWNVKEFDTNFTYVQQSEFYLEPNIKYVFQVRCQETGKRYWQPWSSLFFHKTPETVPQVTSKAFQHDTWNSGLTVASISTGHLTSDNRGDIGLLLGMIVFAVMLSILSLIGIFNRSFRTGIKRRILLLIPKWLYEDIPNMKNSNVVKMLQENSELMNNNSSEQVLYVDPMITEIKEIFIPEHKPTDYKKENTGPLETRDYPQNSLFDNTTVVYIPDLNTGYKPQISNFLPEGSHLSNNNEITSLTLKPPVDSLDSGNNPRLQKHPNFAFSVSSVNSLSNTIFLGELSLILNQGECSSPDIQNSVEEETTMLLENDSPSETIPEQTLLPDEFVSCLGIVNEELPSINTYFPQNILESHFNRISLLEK
experiment_description: DB cells IL23R pSTAT3 cell assay (pStat3 HTRF)
Format: cell-based

Example molecules with recorded IC50:
Prompt: Please report IC50 for the following molecule: CCCCCCCC(=O)NCCCC[C@@H]1NC(=O)[C@H](Cc2c[nH]c3c(C)cccc23)NC(=O)[C@H]([C@@H](C)O)NC(=O)[C@H](CC(N)=O)NC(=O)[C@@H](NC(C)=O)C(C)(C)SSC(C)(C)[C@@H](C(=O)N[C@@H](Cc2ccc(OCCN)cc2)C(=O)N[C@@H](Cc2ccc3ccccc3c2)C(=O)N[C@@](C)(CCCCN)C(=O)N[C@@H](CCCCNC(C)=O)C(=O)N[C@@H](CC(N)=O)C(=O)N[C@H](CC(C)C)C(N)=O)NC1=O [compound 317]
Completion: 1 to 10 nM

Prompt: Let me know recorded IC50 for COc1ccc2[nH]cc(C[C@H](NC(=O)[C@H](Cc3ccc(OCCN)cc3)NC(=O)[C@H]3NC(=O)[C@H](CCC(N)=O)NC(=O)[C@H](Cc4c[nH]c5ccccc45)NC(=O)[C@H]([C@@H](C)O)NC(=O)[C@H](CC(N)=O)NC(=O)[C@@H](NC(C)=O)C(C)(C)SSC3(C)C)C(=O)N[C@@](C)(CC(C)C)C(=O)N[C@@H](CCCCNC(C)=O)C(=O)N[C@@H](CC(N)=O)C(=O)N[C@@H](CC(N)=O)C(N)=O)c2c1 [compound 20] , thanks.
Completion: 10 to 100 nM

Prompt: Check the records and state IC50 for CC(=O)N[C@H]1CCSC[C@@H](C(=O)N[C@@H](Cc2ccc(OCCN)cc2)C(=O)N[C@@H](Cc2ccc3ccccc3c2)C(=O)NC2(C(=O)N[C@@H](CCC(=O)O)C(=O)N[C@@H](CC(N)=O)C(=O)N[C@@H](CC(N)=O)C(N)=O)CCOCC2)NC(=O)[C@H](CCC(N)=O)NC(=O)[C@H](Cc2c[nH]c3c(C)cccc23)NC(=O)[C@H]([C@@H](C)O)NC(=O)[C@H](CCC(N)=O)NC1=O [compound 28]
Completion: < 1 nM

Prompt: Please look at this molecule and report its IC50: CC(=O)NCCCC[C@H](NC(=O)[C@](C)(CC(C)C)NC(=O)[C@H](Cc1ccc2ccccc2c1)NC(=O)[C@H](Cc1ccc(OCCN)cc1)NC(=O)[C@H]1NC(=O)[C@H](CCC(N)=O)NC(=O)[C@H](Cc2c[nH]c3ccc(F)cc23)NC(=O)[C@H]([C@@H](C)O)NC(=O)[C@H](CC(N)=O)NC(=O)[C@@H](NC(C)=O)C(C)(C)SSC1(C)C)C(=O)N[C@@H](CC(N)=O)C(=O)N[C@@H](CC(N)=O)C(N)=O [compound 7]
Completion: 10 to 100 nM

---
Prompt: Give reported IC50 value for CC(=O)NCCCC[C@@H]1NC(=O)[C@H](Cc2c[nH]c3c(C)cccc23)NC(=O)[C@H]([C@@H](C)O)NC(=O)[C@H](CC(N)=O)NC(=O)[C@@H](NC(C)=O)C(C)(C)SSC(C)(C)[C@@H](C(=O)N[C@@H](Cc2ccc(OCCN)cc2)C(=O)N[C@@H](Cc2ccc3ccccc3c2)C(=O)N[C@@](C)(CCCCN)C(=O)N[C@@H](CCCCNC(C)=O)C(=O)N[C@@H](CO)C(=O)N[C@H](CCCCN)C(N)=O)NC1=O [compound 352]
Completion: 1 to 10 nM
